# PROTOCOL_NOTES: Pharmacokinetics after a single oral dose in healthy male volunteers (plasma, HPLC-MS/MS)
# Assay type: in vivo, human
# REPORTED_CONDITIONS: male, human, plasma; 250 mg oral solution, single dose, 18 healthy participants, mean±SEM; read-out: mean AUC0-∞
MEASURED_ENDPOINT: AUC(0-inf) (µg·h/mL)

> print(dat)
                      smiles.representation  assay.value
1  O=C(c1cc(C(F)(F)F)cc(C(F)(F)F)c1)N1CCN(Cc2n[nH]nc2CN2CCOCC2)C[C@H]1Cc1c[nH]c2ccccc12        0.183

====

# PROTOCOL_NOTES: Pharmacokinetics after a single oral dose in healthy male volunteers (plasma, HPLC-MS/MS)
# Type: in vivo, human
# REPORTED_CONDITIONS: male, human, plasma; 250 mg oral solution, single dose, 18 healthy participants, mean±SEM; read-out: peak plasma concentration (Cmax)
MEASURED_ENDPOINT: Cmax

> print(dat)
                      smiles.representation  assay.value
1  O=C(c1cc(C(F)(F)F)cc(C(F)(F)F)c1)N1CCN(Cc2n[nH]nc2CN2CCOCC2)C[C@H]1Cc1c[nH]c2ccccc12     77 ng/mL
